All figures here come from ChEMBL document CHEMBL1124876.

assay: Partition coefficient (logP); assay type: physicochemical; settings: octanol/water
endpoint.label: logP
Please state the value as a number alone, without comment.

Short answer for CCOP(=O)(Cc1ccc(-c2nc3ccccc3s2)cc1)OC (centres undefined) : logP was 3.5

Short answer for CCOP(=O)(Cc1ccc(-c2nc3ccccc3s2)cc1)N1CCCC1=O (centres undefined) : logP was 3

Short answer for CCOC(=O)Cc1ccc(-c2nc3ccccc3s2)cc1 : logP was 3.2

Short answer for Cc1ccc(-c2nc3ccccc3s2)cc1 : logP was 3.7

----------
Please go through the items and note down their LD50 at 168 h.
assay: Lethal effect after per os administration in mouse for 7 days; format: toxicity; details: in vivo, po
Hi! Could you send only the number? It should be in mg/kg, unit omitted.

Short answer for CCOP(=O)(Cc1ccc(-c2nc3ccccc3s2)cc1)N1CCOC1=O (configuration not stated) : LD50 at 168 h was 671

Short answer for COc1ccc([C@@H]2Sc3ccccc3N(CCN(C)C)C(=O)[C@@H]2OC(C)=O)cc1.Cl [DILTIAZEM HYDROCHLORIDE] : LD50 at 168 h was 508

Short answer for CCOP(=O)(Cc1ccc(-c2nc3ccccc3s2)cc1)OCC : LD50 at 168 h was 1190

Short answer for CCOP(=O)(Cc1ccc(-c2nc3ccccc3s2)cc1)N1CCCC1=O (configuration not stated) : LD50 at 168 h was 2110
